// data source = paper PMC4191399

Target: RIG-I Q784A Q784A (Homo sapiens)
Sequence: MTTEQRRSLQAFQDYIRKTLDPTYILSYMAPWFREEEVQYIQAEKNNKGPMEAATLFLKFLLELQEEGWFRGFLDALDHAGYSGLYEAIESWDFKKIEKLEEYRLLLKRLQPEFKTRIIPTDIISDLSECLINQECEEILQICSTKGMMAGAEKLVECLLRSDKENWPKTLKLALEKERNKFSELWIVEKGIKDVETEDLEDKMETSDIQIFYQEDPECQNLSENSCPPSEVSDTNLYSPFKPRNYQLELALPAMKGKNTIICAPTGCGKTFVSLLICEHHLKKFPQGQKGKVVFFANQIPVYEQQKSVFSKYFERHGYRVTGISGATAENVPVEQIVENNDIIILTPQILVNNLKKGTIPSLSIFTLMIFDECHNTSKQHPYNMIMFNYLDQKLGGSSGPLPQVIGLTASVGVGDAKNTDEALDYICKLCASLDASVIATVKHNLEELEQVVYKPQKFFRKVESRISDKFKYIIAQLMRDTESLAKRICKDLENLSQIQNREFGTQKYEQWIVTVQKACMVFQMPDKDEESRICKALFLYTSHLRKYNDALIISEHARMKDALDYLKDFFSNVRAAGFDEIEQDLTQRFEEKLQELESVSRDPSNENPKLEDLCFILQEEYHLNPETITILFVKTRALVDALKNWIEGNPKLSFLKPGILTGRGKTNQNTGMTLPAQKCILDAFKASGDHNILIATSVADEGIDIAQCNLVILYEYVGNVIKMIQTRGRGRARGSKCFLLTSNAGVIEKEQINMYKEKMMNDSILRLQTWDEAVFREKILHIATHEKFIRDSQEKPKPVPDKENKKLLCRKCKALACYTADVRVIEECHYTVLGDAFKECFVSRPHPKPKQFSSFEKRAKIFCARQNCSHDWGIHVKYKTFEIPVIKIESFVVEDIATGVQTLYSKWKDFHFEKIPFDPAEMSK
Assay: fluorescence polarization
Conditions: internal 6-carboxyfluorescein in backbone between U12 and C13 (central tetraloop bases); 25 mM MOPS pH 7.4, 150 mM KCl, 2 mM DTT, 2 mM MgCl2, 0.01% Triton X-100, 1 nM RNA, room temperature, 1 h
observation.type: Kd (µM)
One number for each entry, in µM.

query: // lookup Kd | system=RIG-I Q784A Q784A (Homo sapiens) | key= GGACGUACGUUUCGACGUACGUCC [5'OH10L-F]
result: 0.0238

* * *

Target: RIG-I Q784A/K788A/R791A Q784A;K788A;R791A (Homo sapiens) (UniProt O95786)
Sequence: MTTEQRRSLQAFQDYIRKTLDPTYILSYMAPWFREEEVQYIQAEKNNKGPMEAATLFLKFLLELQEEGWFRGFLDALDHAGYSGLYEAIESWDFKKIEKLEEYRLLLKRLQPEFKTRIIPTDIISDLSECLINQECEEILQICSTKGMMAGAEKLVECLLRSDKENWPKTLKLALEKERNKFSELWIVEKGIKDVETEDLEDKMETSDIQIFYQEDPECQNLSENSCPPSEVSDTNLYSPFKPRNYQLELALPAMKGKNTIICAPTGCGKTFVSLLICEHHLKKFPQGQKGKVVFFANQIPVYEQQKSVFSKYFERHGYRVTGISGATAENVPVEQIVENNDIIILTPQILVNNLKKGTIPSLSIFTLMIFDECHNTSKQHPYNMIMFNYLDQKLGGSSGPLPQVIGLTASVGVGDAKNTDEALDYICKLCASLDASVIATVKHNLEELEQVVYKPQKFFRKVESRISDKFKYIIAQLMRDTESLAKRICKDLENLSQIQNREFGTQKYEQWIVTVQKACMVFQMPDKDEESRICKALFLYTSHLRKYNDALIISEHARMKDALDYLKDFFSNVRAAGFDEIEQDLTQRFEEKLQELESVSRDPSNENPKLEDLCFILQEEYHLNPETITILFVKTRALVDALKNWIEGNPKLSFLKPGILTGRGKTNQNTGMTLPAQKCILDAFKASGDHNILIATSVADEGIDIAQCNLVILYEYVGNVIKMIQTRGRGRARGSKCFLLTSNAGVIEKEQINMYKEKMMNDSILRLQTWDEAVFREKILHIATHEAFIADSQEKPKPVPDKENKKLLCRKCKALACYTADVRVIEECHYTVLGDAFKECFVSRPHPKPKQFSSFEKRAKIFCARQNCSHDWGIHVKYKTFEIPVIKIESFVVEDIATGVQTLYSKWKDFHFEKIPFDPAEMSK
Test: fluorescence polarization
Conditions: internal 6-carboxyfluorescein in backbone between U12 and C13 (central tetraloop bases); 25 mM MOPS pH 7.4, 150 mM KCl, 2 mM DTT, 2 mM MgCl2, 0.01% Triton X-100, 1 nM RNA, room temperature, 1 h
observation.type: Kd (µM)
Numbers only, in µM.

query: Report Kd for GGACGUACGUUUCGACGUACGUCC [5'OH10L-F] please.
result: 0.172

* * *

Target: RIG-I K788A/R791A K788A;R791A (Homo sapiens)
Sequence: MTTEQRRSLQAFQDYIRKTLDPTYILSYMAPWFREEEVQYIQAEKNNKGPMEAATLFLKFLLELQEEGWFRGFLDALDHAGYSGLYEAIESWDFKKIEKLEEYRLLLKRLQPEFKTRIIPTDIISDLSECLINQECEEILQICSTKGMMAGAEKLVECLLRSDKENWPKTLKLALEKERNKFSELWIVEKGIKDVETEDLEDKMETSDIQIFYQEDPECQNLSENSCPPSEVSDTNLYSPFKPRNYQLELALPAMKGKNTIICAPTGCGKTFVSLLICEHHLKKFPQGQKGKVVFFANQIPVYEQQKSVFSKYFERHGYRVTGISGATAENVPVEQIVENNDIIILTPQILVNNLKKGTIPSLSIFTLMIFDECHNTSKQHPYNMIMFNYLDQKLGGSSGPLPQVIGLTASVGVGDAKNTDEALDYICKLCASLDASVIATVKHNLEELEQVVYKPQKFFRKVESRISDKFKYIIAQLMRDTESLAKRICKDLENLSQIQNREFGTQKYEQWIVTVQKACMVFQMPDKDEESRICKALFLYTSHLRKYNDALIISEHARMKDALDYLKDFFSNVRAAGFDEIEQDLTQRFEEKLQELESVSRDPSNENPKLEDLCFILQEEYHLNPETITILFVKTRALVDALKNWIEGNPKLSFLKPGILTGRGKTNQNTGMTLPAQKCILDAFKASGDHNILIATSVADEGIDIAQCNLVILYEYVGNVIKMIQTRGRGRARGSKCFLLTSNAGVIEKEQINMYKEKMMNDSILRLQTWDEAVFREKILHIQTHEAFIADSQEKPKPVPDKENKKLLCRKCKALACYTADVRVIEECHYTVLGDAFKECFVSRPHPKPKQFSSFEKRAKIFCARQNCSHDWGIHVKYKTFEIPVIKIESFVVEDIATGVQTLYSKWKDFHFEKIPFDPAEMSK
Assay: fluorescence polarization
Conditions: internal 6-carboxyfluorescein in backbone between U12 and C13 (central tetraloop bases); 25 mM MOPS pH 7.4, 150 mM KCl, 2 mM DTT, 2 mM MgCl2, 0.01% Triton X-100, 1 nM RNA, room temperature, 1 h
observation.type: pKd
Give bare numbers, as −log10 of the molar value.

query: Report pKd for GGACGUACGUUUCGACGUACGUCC [5'OH10L-F] please.
result: 6.78
